assay-target: CCR2 (Homo sapiens, UniProt P41597)
Construct: expressed in transfected cells; host or cells: HEK293 (clone C7, passage P6)
Sequence (P41597 whole entry, species assumed): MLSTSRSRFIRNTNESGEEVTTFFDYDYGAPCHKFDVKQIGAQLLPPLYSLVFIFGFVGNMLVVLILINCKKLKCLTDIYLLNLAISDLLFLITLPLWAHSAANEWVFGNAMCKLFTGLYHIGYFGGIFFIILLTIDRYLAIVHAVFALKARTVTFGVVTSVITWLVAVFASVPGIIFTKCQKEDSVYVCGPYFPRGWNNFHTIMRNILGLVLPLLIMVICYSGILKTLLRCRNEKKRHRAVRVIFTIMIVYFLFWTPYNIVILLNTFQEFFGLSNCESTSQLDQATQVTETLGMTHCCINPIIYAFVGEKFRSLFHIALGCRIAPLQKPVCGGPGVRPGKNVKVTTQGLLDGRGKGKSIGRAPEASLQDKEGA
protocol-notes: FLIPR calcium assay, CCR2 cell line
Type: cell-based
conditions-used: HEK293 host cell, MCP-1 agonist, intracellular calcium signal; read-out: IC50 (nM) test results for FLIPR detection, CCR2
Lab note: cut-off is 4 nM. Strictly less in IC50 is T. Exactly 4 nM or more is F.

# compound, assigned-class
rows = [
    ("CCCCOCCOc1ccc(-c2ccc3c(c2)/C=C(/C(=O)Nc2ccc([S@@+]([O-])Cc4c(C)ncn4CC)cc2)CCCN3CC2CCOCC2)cc1 [WX002]", "T"),
    ("CCCCOCCOc1ccc(-c2ccc3c(c2)/C=C(/C(=O)Nc2ccc([S@+]([O-])Cc4c(C)ncn4CC)cc2)CCCCN3CC2CCCOC2)cc1 (stereo partly shown) [WX007]", "F"),
    ("CCCCOCCOc1ccc(-c2ccc3c(c2)/C=C(/C(=O)Nc2ccc([S@+]([O-])Cc4c(C)ncn4CC)cc2)CCCN3CC2CCOCC2)cc1", "T"),
    ("CCCCOCCOc1ccc(-c2ccc3c(c2)/C=C(/C(=O)Nc2ccc([S@+]([O-])Cc4c(C)ncn4CC)cc2)CCCN3CC2CCOC2)cc1 (stereo partly shown) [WX014]", "T"),
    ("CCCCOCCOc1ccc(-c2ccc3c(c2)/C=C(/C(=O)Nc2ccc([S@+]([O-])Cc4c(C)ncn4CC)cc2)CCCN3C[C@H]2CCCO2)cc1", "T"),
    ("CCCCOCCOc1ccc(-c2ccc3c(c2)/C=C(/C(=O)Nc2ccc([S@+]([O-])Cc4c(C)ncn4CC)cc2)CCCN3CC2CCCO2)cc1 (stereo partly shown)", "T"),
    ("CCCCOCCOc1ccc(-c2ccc3c(c2)/C=C(/C(=O)Nc2ccc([S@+]([O-])Cc4c(C)ncn4CC)cc2)CCCN3CC2CCCCO2)cc1 (stereo partly shown)", "T"),
    ("CCCCOCCOc1ccc(-c2ccc3c(c2)/C=C(/C(=O)Nc2ccc([S@+]([O-])Cc4c(C)ncn4CC)cc2)CCCCN3CC2CCCOC2)cc1 (stereo partly shown) [WX006]", "F"),
    ("CCCCOCCOc1ccc(-c2ccc3c(c2)/C=C(/C(=O)Nc2ccc([S@+]([O-])Cc4c(C)ncn4CC)cc2)CCCN3CC2COCCO2)cc1 (stereo partly shown) [WX026]", "T"),
    ("CCCCOCCOc1ccc(-c2ccc3c(c2)/C=C(/C(=O)Nc2ccc([S@+]([O-])Cc4c(C)ncn4CC)cc2)CCCN3CC2COCCO2)cc1 (stereo partly shown) [WX025]", "T"),
]

Request: For CCCCOCCOc1ccc(-c2ccc3c(c2)/C=C(/C(=O)Nc2ccc([S@+]([O-])Cc4c(C)ncn4CC)cc2)CCCCN3CC2COC2)cc1 , is the recorded IC50 below the cut-off of 4 nM?
Response: F

Request: For CCCCOCCOc1ccc(-c2ccc3c(c2)/C=C(/C(=O)Nc2ccc([S@@+]([O-])Cc4c(C)ncn4CC)cc2)CCCN3CC2CCOCC2)cc1 [WX017] , is the recorded IC50 below the cut-off of 4 nM?
Response: T

Request: For CCCCOCCOc1ccc(-c2ccc3c(c2)/C=C(/C(=O)Nc2ccc([S@+]([O-])Cc4c(C)ncn4CC)cc2)CCCN3CC2CCN(C)CC2)cc1 , is the recorded IC50 below the cut-off of 4 nM?
Response: F
